Source of measurements: patent US20260317437

target: GCGR extracellular domain (human, UniProt P47871); assay: SPR
Sequence (P47871 26-477): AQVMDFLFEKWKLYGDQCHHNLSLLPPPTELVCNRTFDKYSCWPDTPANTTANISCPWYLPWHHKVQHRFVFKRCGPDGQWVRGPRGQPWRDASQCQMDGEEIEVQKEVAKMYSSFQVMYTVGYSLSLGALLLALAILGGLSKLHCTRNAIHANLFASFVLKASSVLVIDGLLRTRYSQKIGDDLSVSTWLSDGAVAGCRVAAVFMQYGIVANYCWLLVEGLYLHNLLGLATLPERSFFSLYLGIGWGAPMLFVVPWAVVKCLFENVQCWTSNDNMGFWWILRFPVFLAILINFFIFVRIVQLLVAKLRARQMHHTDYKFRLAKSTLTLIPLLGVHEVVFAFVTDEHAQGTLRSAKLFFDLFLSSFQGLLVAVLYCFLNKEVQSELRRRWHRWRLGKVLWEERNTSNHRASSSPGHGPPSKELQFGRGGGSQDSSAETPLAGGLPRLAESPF
measured-parameter: Kd (nM)
Kindly provide the numeric value in nM only, without the unit symbol.

// known answers, use as guide
VH Y31A (antibody, V domains shown) VH: EVQLVESGGGLVQPGGSLRLSCAASGFNIYANYIHWVRQAPGKGLEWVAEFSPYSGSTYYADSVKGRFTISADTSKNTAYLQMNSLRAEDTAVYYCARSAAIVDWYDYFKGFDYWGQGTLVTVSS VL: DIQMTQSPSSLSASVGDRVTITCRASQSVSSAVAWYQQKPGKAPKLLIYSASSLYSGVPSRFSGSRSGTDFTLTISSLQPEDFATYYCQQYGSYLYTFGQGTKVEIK = 206
VH W100aA (antibody, V domains shown) VH: EVQLVESGGGLVQPGGSLRLSCAASGFNIYYNYIHWVRQAPGKGLEWVAEFSPYSGSTYYADSVKGRFTISADTSKNTAYLQMNSLRAEDTAVYYCARSAAIVDAYDYFKGFDYWGQGTLVTVSS VL: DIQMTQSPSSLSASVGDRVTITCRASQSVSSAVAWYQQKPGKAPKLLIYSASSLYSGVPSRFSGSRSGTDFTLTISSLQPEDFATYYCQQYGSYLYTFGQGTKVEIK = 11

Now look at this entry.
Asked: Look up Kd: VL Y91A (antibody, V domains shown) VH: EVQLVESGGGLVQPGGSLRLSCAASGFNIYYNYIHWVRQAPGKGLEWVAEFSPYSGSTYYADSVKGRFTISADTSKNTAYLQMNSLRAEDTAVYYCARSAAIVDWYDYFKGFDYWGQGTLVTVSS VL: DIQMTQSPSSLSASVGDRVTITCRASQSVSSAVAWYQQKPGKAPKLLIYSASSLYSGVPSRFSGSRSGTDFTLTISSLQPEDFATYYCQQAGSYLYTFGQGTKVEIK
Given back: 0.84
